# Tested on: Escherichia coli TOP10;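 also: peptides expressed intracellularly from a pBAD plasmid library in pooled LB shake-flask culture, induced with 0.3% L-arabinose, DNA abundance read by NGS, three biological replicates, DESeq2 with apeglm shrinkage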
# Assay comment: shrunken log2 fold change of peptide-encoding DNA abundance (4.5 h post-induction vs induction); higher = less antimicrobial activity (less host growth inhibition)
# Test context: time post-induction: 4.5 h; library: site-saturation at positions 5, 18, 19, 20
Would you mind classing the entries by shrunken log2 fold change? Ranges: one: < -0.04; two: ≥ -0.04 and < 0.2; three: ≥ 0.2

[[record]]
residue_sequence = "RRIRSRPPRLPRPRPRPPYSPRP"
class_label = "one"

[[record]]
residue_sequence = "RRIRNRPPRLPRPRPRPPFRPRP"
class_label = "two"

[[record]]
residue_sequence = "RRIRKRPPRLPRPRPRPMIEPRP"
class_label = "two"

[[record]]
residue_sequence = "RRIRWRPPRLPRPRPRPERNPRP"
class_label = "one"

[[record]]
residue_sequence = "RRIRMRPPRLPRPRPRPETLPRP"
class_label = "two"

[[record]]
residue_sequence = "RRIRFRPPRLPRPRPRPKPPPRP"
class_label = "three"

[[record]]
residue_sequence = "RRIRIRPPRLPRPRPRPPTQPRP"
class_label = "three"

[[record]]
residue_sequence = "RRIRVRPPRLPRPRPRPIPCPRP"
class_label = "one"

[[record]]
residue_sequence = "RRIRDRPPRLPRPRPRPLRSPRP"
class_label = "three"

[[record]]
residue_sequence = "RRIRTRPPRLPRPRPRPAYTPRP"
class_label = "one"

[[record]]
residue_sequence = "RRIRKRPPRLPRPRPRPQPRPRP"
class_label = "three"

[[record]]
residue_sequence = "RRIRLRPPRLPRPRPRPRFYPRP"
class_label = "two"

[[record]]
residue_sequence = "RRIRSRPPRLPRPRPRPGLFPRP"
class_label = "two"

[[record]]
residue_sequence = "RRIRVRPPRLPRPRPRPKFFPRP"
class_label = "two"

[[record]]
residue_sequence = "RRIRVRPPRLPRPRPRPLKNPRP"
class_label = "one"

[[record]]
residue_sequence = "RRIRGRPPRLPRPRPRPGEHPRP"
class_label = "three"

[[record]]
residue_sequence = "RRIRNRPPRLPRPRPRPHGPPRP"
class_label = "two"

[[record]]
residue_sequence = "RRIRMRPPRLPRPRPRPSHPPRP"
class_label = "two"

[[record]]
residue_sequence = "RRIRGRPPRLPRPRPRPYVTPRP"
class_label = "two"

[[record]]
residue_sequence = "RRIRPRPPRLPRPRPRPIMPPRP"
class_label = "one"

[[record]]
residue_sequence = "RRIRARPPRLPRPRPRPQDCPRP"
class_label = "two"

[[record]]
residue_sequence = "RRIRTRPPRLPRPRPRPLREPRP"
class_label = "three"

[[record]]
residue_sequence = "RRIRRRPPRLPRPRPRPTSGPRP"
class_label = "three"

[[record]]
residue_sequence = "RRIRWRPPRLPRPRPRPWEEPRP"
class_label = "two"

[[record]]
residue_sequence = "RRIRCRPPRLPRPRPRPYSIPRP"
class_label = "one"

[[record]]
residue_sequence = "RRIRTRPPRLPRPRPRPTKNPRP"
class_label = "one"

[[record]]
residue_sequence = "RRIRYRPPRLPRPRPRPWTDPRP"
class_label = "two"

[[record]]
residue_sequence = "RRIRQRPPRLPRPRPRPKFFPRP"
class_label = "two"

[[record]]
residue_sequence = "RRIRSRPPRLPRPRPRPCLYPRP"
class_label = "one"

[[record]]
residue_sequence = "RRIRKRPPRLPRPRPRPWRTPRP"
class_label = "three"

[[record]]
residue_sequence = "RRIRERPPRLPRPRPRPGGSPRP"
class_label = "two"

